// data source = paper PMC6516726

Each entry below carries its recorded kobs1.
# system tested: L25A PETNR (Enterobacter cloacae, UniProt P71278, L26A)
# Sequence (P71278 entry or part of it L26A): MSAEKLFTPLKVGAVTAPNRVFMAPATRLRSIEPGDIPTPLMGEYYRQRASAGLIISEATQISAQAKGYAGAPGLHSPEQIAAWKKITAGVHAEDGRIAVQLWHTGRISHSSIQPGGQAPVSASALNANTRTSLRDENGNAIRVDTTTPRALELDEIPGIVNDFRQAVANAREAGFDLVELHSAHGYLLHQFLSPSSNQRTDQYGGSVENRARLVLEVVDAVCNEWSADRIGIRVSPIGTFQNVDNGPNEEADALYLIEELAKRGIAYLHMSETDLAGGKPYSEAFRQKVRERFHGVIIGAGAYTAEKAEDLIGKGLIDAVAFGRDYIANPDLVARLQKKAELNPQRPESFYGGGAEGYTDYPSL
# protocol conditions: 25 °C; 10 mM NADPH or 25 mM NADH; pH 7.0
The response must be a number in s⁻¹ with no trailing unit.

Reference set (3 entries):
compound	kobs1, s⁻¹
NC(=O)C1=CN([C@@H]2O[C@H](COP(=O)(O)OP(=O)(O)OC[C@H]3O[C@@H](n4cnc5c(N)ncnc54)[C@H](O)[C@@H]3O)[C@@H](O)[C@H]2O)C=CC1	3.33
[2H][C@@H]1C=CN([C@@H]2O[C@H](COP(=O)(O)OP(=O)(O)OC[C@H]3O[C@@H](n4cnc5c(N)ncnc54)[C@H](O)[C@@H]3O)[C@@H](O)[C@H]2O)C=C1C(N)=O [(R)-[4-^2H]-NADH]	0.495
[2H][C@@H]1C=CN([C@@H]2O[C@H](COP(=O)(O)OP(=O)(O)OC[C@H]3O[C@@H](n4cnc5c(N)ncnc54)[C@H](OP(=O)(O)O)[C@@H]3O)[C@@H](O)[C@H]2O)C=C1C(N)=O [(R)-[4-^2H]-NADPH]	8.01

Continue with the next compound.
Problem: kobs1 lookup needed for `NC(=O)C1=CN([C@@H]2O[C@H](COP(=O)(O)OP(=O)(O)OC[C@H]3O[C@@H](n4cnc5c(N)ncnc54)[C@H](OP(=O)(O)O)[C@@H]3O)[C@@H](O)[C@H]2O)C=CC1` , thanks.
Result: 53.77
